This collection of values is drawn from paper PMC10325562.

assay: Solubility; type: physicochemical
TEST_READOUT: solubility (µg/mL)
Numbers only here, please. The scale is µg/mL.

Task: Which measured solubility value corresponds to COc1ccc(C[C@@H]2NC(=O)[C@H]([C@@H](C)O)NC(=O)[C@@H]3[C@@H]4CCN3C(=O)[C@@H]3Cc5cn(c6ccc(F)cc56)CCCCCCN(Cc5ccc(cc5)CCNC(=O)[C@]5(C)CCCN5C2=O)C(=O)CCC(=O)N[C@@H](C)C(=O)N[C@H](CNC(=O)CCCCC[N+](C)(C)C)C(=O)N[C@@H](Cc2cccc(c2)CNC(=O)CO4)C(=O)N3)cc1 [MK-0616] ?
Output: 7800

* * *

assay: Study-003 multiple oral dose plasma pharmacokinetics; assay type: in vivo, human; details: both, human, plasma, po, 20 mg, C24, Day 1; 20 mg once daily fasted + 360 mg sodium caprate, n=9; geometric mean (95% CI)
TEST_READOUT: level at time molar at 24 h (nM)
Give just the numeric value; nM need not be written.

Task: What value of level at time molar at 24 h has been recorded for this entry: COc1ccc(C[C@@H]2NC(=O)[C@H]([C@@H](C)O)NC(=O)[C@@H]3[C@@H]4CCN3C(=O)[C@@H]3Cc5cn(c6ccc(F)cc56)CCCCCCN(Cc5ccc(cc5)CCNC(=O)[C@]5(C)CCCN5C2=O)C(=O)CCC(=O)N[C@@H](C)C(=O)N[C@H](CNC(=O)CCCCC[N+](C)(C)C)C(=O)N[C@@H](Cc2cccc(c2)CNC(=O)CO4)C(=O)N3)cc1 [MK-0616]
Output: 6.13

* * *

test: Solubility; format: physicochemical; conditions: pH 7
TEST_READOUT: solubility

Task: Suppose we examine the molecule COc1ccc(C[C@@H]2NC(=O)[C@H]([C@@H](C)O)NC(=O)[C@@H]3[C@@H]4CCN3C(=O)[C@@H]3Cc5cn(c6ccc(F)cc56)CCCCCCN(Cc5ccc(cc5)CCNC(=O)[C@]5(C)CCCN5C2=O)C(=O)CCC(=O)N[C@@H](C)C(=O)N[C@H](CNC(=O)CCCCC[N+](C)(C)C)C(=O)N[C@@H](Cc2cccc(c2)CNC(=O)CO4)C(=O)N3)cc1 [MK-0616] ; what solubility value has been reported?
Output: > 7000 µg/mL

* * *

experiment: Study-003 multiple oral dose plasma pharmacokinetics; format: in vivo, human; conditions: human, in vivo, Cmax, Day 14; 20 mg once daily fasted + 360 mg sodium caprate, n=9; geometric mean (95% CI)
TEST_READOUT: Cmax (nM)
Please reply with the bare figure in nM and do not write the unit itself.

Task: Any idea what Cmax was measured for COc1ccc(C[C@@H]2NC(=O)[C@H]([C@@H](C)O)NC(=O)[C@@H]3[C@@H]4CCN3C(=O)[C@@H]3Cc5cn(c6ccc(F)cc56)CCCCCCN(Cc5ccc(cc5)CCNC(=O)[C@]5(C)CCCN5C2=O)C(=O)CCC(=O)N[C@@H](C)C(=O)N[C@H](CNC(=O)CCCCC[N+](C)(C)C)C(=O)N[C@@H](Cc2cccc(c2)CNC(=O)CO4)C(=O)N3)cc1 [MK-0616] ?
Output: 16.1

* * *

experiment: Passive permeability in MDCKII cells; conditions: MDCK, pH 7.4
TEST_READOUT: Papp (×10⁻⁶ cm/s)
Your answer is read as ×10⁻⁶ cm/s, so omit the unit and give the number.

Task: Quick check: Papp of COc1ccc(C[C@@H]2NC(=O)[C@H]([C@@H](C)O)NC(=O)[C@@H]3[C@@H]4CCN3C(=O)[C@@H]3Cc5cn(c6ccc(F)cc56)CCCCCCN(Cc5ccc(cc5)CCNC(=O)[C@]5(C)CCCN5C2=O)C(=O)CCC(=O)N[C@@H](C)C(=O)N[C@H](CNC(=O)CCCCC[N+](C)(C)C)C(=O)N[C@@H](Cc2cccc(c2)CNC(=O)CO4)C(=O)N3)cc1 [MK-0616] ?
Output: 0.71

* * *

experiment: Study-003 multiple oral dose plasma pharmacokinetics; format: in vivo, human; conditions: human, in vivo, Cmax, Day 1; 20 mg once daily fasted + 360 mg sodium caprate, n=9; geometric mean (95% CI)
TEST_READOUT: Cmax (nM)
Give the value in nM but do not write nM after it.

Task: Consider the compound COc1ccc(C[C@@H]2NC(=O)[C@H]([C@@H](C)O)NC(=O)[C@@H]3[C@@H]4CCN3C(=O)[C@@H]3Cc5cn(c6ccc(F)cc56)CCCCCCN(Cc5ccc(cc5)CCNC(=O)[C@]5(C)CCCN5C2=O)C(=O)CCC(=O)N[C@@H](C)C(=O)N[C@H](CNC(=O)CCCCC[N+](C)(C)C)C(=O)N[C@@H](Cc2cccc(c2)CNC(=O)CO4)C(=O)N3)cc1 [MK-0616] and give its measured Cmax.
Output: 7.87

* * *

assay: Study-003 multiple oral dose plasma pharmacokinetics; type: in vivo, human; details: human, in vivo, Tmax, Day 14, all fasted doses
TEST_READOUT: Tmax

Task: Any idea what Tmax was measured for COc1ccc(C[C@@H]2NC(=O)[C@H]([C@@H](C)O)NC(=O)[C@@H]3[C@@H]4CCN3C(=O)[C@@H]3Cc5cn(c6ccc(F)cc56)CCCCCCN(Cc5ccc(cc5)CCNC(=O)[C@]5(C)CCCN5C2=O)C(=O)CCC(=O)N[C@@H](C)C(=O)N[C@H](CNC(=O)CCCCC[N+](C)(C)C)C(=O)N[C@@H](Cc2cccc(c2)CNC(=O)CO4)C(=O)N3)cc1 ?
Output: < 2 h

* * *

test: Study-003 multiple oral dose plasma pharmacokinetics; assay type: in vivo, human; settings: human, in vivo, AUC0-24, Day 14; 20 mg once daily fasted + 360 mg sodium caprate, n=9; geometric mean (95% CI)
TEST_READOUT: AUC(0-t) (µM·h)
// units = µM·h; emit number, no label

Task: AUC(0-t) for COc1ccc(C[C@@H]2NC(=O)[C@H]([C@@H](C)O)NC(=O)[C@@H]3[C@@H]4CCN3C(=O)[C@@H]3Cc5cn(c6ccc(F)cc56)CCCCCCN(Cc5ccc(cc5)CCNC(=O)[C@]5(C)CCCN5C2=O)C(=O)CCC(=O)N[C@@H](C)C(=O)N[C@H](CNC(=O)CCCCC[N+](C)(C)C)C(=O)N[C@@H](Cc2cccc(c2)CNC(=O)CO4)C(=O)N3)cc1 ?
Output: 0.28

* * *

assay: Study-003 multiple oral dose plasma pharmacokinetics; assay type: in vivo, human; conditions: human, in vivo, AUC0-24, Day 1; 20 mg once daily fasted + 360 mg sodium caprate, statin-treated, n=9; geometric mean (95% CI)
TEST_READOUT: AUC(0-t) (nM·h)
Hi! Could you send only the number? It should be in nM·h, unit omitted.

Task: Bench note: what AUC(0-t) did COc1ccc(C[C@@H]2NC(=O)[C@H]([C@@H](C)O)NC(=O)[C@@H]3[C@@H]4CCN3C(=O)[C@@H]3Cc5cn(c6ccc(F)cc56)CCCCCCN(Cc5ccc(cc5)CCNC(=O)[C@]5(C)CCCN5C2=O)C(=O)CCC(=O)N[C@@H](C)C(=O)N[C@H](CNC(=O)CCCCC[N+](C)(C)C)C(=O)N[C@@H](Cc2cccc(c2)CNC(=O)CO4)C(=O)N3)cc1 [MK-0616] show?
Output: 142
